Value source: patent US12649727B2

Consider the following molecules; for each one, report its GI50.
# TARGET DESC: Ba/F3 EGFR-V769_D770insASV (Homo sapiens, UniProt P00533, DUP767-769, cells depend on it)
# Sequence (P00533 with tags, fused parts or gaps DUP767-769): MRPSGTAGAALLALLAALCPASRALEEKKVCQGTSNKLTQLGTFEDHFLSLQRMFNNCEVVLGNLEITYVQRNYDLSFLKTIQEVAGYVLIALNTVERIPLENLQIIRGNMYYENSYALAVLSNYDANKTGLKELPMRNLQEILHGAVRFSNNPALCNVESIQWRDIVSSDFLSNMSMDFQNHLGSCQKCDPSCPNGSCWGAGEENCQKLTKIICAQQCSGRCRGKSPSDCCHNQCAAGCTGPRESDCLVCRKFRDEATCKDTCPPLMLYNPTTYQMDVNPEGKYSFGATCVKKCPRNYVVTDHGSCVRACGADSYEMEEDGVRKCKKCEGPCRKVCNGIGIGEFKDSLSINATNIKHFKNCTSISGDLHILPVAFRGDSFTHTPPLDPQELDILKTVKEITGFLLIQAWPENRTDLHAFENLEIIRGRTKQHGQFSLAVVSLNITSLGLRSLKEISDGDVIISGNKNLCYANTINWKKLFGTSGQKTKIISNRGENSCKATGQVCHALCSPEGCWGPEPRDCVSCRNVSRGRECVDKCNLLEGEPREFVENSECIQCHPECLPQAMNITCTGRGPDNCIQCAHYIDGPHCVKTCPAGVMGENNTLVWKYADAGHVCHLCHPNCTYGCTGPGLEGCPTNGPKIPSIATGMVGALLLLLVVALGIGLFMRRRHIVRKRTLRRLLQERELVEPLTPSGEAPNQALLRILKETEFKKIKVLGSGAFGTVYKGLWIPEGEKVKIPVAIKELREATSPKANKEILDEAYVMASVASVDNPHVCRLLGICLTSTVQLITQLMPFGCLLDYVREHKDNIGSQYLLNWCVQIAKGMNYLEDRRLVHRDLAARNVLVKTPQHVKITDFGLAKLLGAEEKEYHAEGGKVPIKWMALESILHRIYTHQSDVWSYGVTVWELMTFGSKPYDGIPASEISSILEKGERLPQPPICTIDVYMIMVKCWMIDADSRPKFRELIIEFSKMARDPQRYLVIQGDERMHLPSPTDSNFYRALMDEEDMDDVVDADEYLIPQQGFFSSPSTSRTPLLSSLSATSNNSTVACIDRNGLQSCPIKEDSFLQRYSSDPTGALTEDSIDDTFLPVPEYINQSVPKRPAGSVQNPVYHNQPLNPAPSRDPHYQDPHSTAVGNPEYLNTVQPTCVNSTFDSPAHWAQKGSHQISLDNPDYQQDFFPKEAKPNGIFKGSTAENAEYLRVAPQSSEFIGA
# TEST NAME: Proliferation experiment of Ba/F3 cell line, EGFR-V769_D770insASV (CellTiter-Glo)
# Format: cell-based
# MEASUREMENT SETUP: cultured for 72 hrs with compound, CTG analysis, read-out: Ba/F3 EGFR-V769_D770insASV IC50
One number for each entry, in nM.

Worked examples, 4 molecules total:
* C=CC(=O)Nc1cc2c(Nc3ccnc(-c4ccccc4F)c3)ncnc2cc1O[C@@H]1CCN(C)C1 | 7.9
* C=CC(=O)Nc1cc2c(Nc3cncc(-c4ccccc4F)c3)ncnc2cc1OCCCN1CCOCC1 | 13.6
* C=C(F)C(=O)Nc1cc2c(Nc3ccnc(-c4ccccc4F)c3)ncnc2cc1F | 51.1
* C=CC(=O)Nc1cc2c(Nc3ccnc(-c4ccccc4F)c3)ncnc2cc1O[C@@H]1CCN(C2CCN(C)CC2)C1 | 3.4

Could I get GI50 for every one of these entries?
1. C=CC(=O)Nc1cc2c(Nc3cncc(-c4ccccc4F)c3)ncnc2cc1OCCCN1CCN(C)CC1
2. C=CC(=O)Nc1cc2c(Nc3cccc(-c4c(F)cccc4F)c3)ncnc2cc1OCCCN1CCN(C2COC2)CC1

11.2
54.1

Could I get GI50 for every one of these entries?
1. C=CC(=O)Nc1cc2c(Nc3ccnc(-c4ccccc4F)c3)ncnc2cc1OCCCN1CCN(C)CC1
2. C=CC(=O)Nc1cc2c(Nc3cccc(-c4ccc(F)cc4F)c3)ncnc2cc1OCCN1CCC(F)(F)CC1
3. C=CC(=O)Nc1cc2c(Nc3cccc(-c4ccc(F)cc4F)c3)ncnc2cc1OCCCN1CCOCC1

5
240
42.4

Could I get GI50 for every one of these entries?
1. C=CC(=O)Nc1cc2c(Nc3cncc(-c4c(F)cccc4F)c3)ncnc2cc1O[C@@H]1CCN(C)C1
2. C=CC(=O)Nc1cc2c(Nc3ccnc(-c4ccccc4F)c3)ncnc2cc1OCCCN1CCOCC1
3. C=C(F)C(=O)Nc1cc2c(Nc3ccnc(-c4ccccc4F)c3)ncnc2cc1N1CCC1
4. C=CC(=O)Nc1cc2c(Nc3ccnc(-c4c(F)cccc4F)c3)ncnc2cc1OCCCN1CCN(C)CC1

[63.6, 5, 35, 4.4]

* * *

# TARGET DESC: Ba/F3 EGFR-V769_D770insASV (Homo sapiens, UniProt P00533, DUP767-769, cells depend on it)
# TEST NAME: Proliferation experiment of Ba/F3 cell line, EGFR-V769_D770insASV (CellTiter-Glo)
# Type: cell-based
# MEASUREMENT SETUP: cultured for 72 hrs with compound, CTG analysis, read-out: Ba/F3 EGFR-V769_D770insASV IC50
Consider the following compounds; for each one, report its GI50.
Give bare numbers, in nM.

Worked examples, 3 compounds total:
- C=CC(=O)Nc1cc2c(Nc3ccnc(-c4ccccc4F)c3)ncnc2cc1O[C@@H]1CCN(C2CC2)C1 [Example 113]: 11.6
- C=CC(=O)Nc1cc2c(Nc3cccc(-c4c(F)cccc4F)c3)ncnc2cc1OCCCN1CCN(C2CC2)CC1 [Example 29]: 44.6
- C=CC(=O)Nc1cc2c(Nc3ccnc(-c4ccccc4F)c3)ncnc2cc1F [Example 92]: 16.7

--- query ---
Entry C=C(F)C(=O)Nc1cc2c(Nc3ccnc(-c4ccccc4F)c3)ncnc2cc1OC1CC1 [Example 90] needs its GI50 filled in; supply it.
35.8

* * *

# TARGET DESC: Ba/F3 EGFR-V769_D770insASV (Homo sapiens, UniProt P00533, DUP767-769, cells depend on it)
# TEST NAME: Proliferation experiment of Ba/F3 cell line, EGFR-V769_D770insASV (CellTiter-Glo)
# Format: cell-based
# MEASUREMENT SETUP: cultured for 72 hrs with compound, CTG analysis, read-out: Ba/F3 EGFR-V769_D770insASV IC50
# Procedure: Proliferation Experiment of Ba/F3 Cell Line (I) Reagents and Materials […] (IV) Experimental Procedures 1. Cell Culture and Inoculation: • (1) Cells in the logarithmic growth phase were harvested and counted using a platelet counter. […] Data were analyzed using GraphPad Prism 7.0 software and fitted data were regressed using non-linear S-curves to obtain dose-response curves from which IC50 values (in nM) were calculated.
QUANTITY: GI50 (nM)
One number for each entry, in nM.

Worked examples, 3 molecules total:
- C=C(F)C(=O)Nc1cc2c(Nc3ccnc(-c4ccccc4F)c3)ncnc2cc1N1CCC(O)CC1: 14.8
- C=CC(=O)Nc1cc2c(Nc3cc(-c4ccc(F)cc4F)ccc3F)ncnc2cc1OCCCN1CCOCC1: 119
- C=CC(=O)Nc1cc2c(Nc3cccc(-c4ccccc4F)c3)ncnc2cc1OCCCN1CCOCC1: 27

Could I get GI50 for every one of these entries?
1. C=C(F)C(=O)Nc1cc2c(Nc3ccnc(-c4ccccc4F)c3)ncnc2cc1OCC1CC1
2. C=CC(=O)Nc1cc2c(Nc3ccnc(-c4ccccc4F)c3)ncnc2cc1OCCOC
3. C=CC(=O)Nc1cc2c(Nc3cc(-c4ccc(F)cc4F)ccc3F)ncnc2cc1OCCCN1CCN(C)CC1
4. C=CC(=O)Nc1cc2c(Nc3cccc(-n4cccn4)c3)ncnc2cc1OCCN1CCOCC1
5. C=CC(=O)Nc1cc2c(Nc3ccnc(-c4ccccc4F)c3)ncnc2cc1O[C@@H]1CCN(CCO)C1

[32.7, 3, 53.9, 89.9, 3.6]

Could I get GI50 for every one of these entries?
1. C=C(F)C(=O)Nc1cc2c(Nc3ccnc(-c4ccccc4F)c3)ncnc2cc1O[C@@H]1CCN(C2CCOCC2)C1
2. C=C(F)C(=O)Nc1cc2c(Nc3ccnc(-c4ccccc4F)c3)ncnc2cc1N1CCC(F)(F)C1

1: 16.5; 2: 29.9
